Source: ChEMBL document CHEMBL1126730

# Organism: Mus musculus
# runDescription: Testing for ataxia was done by using an inverted screen technique
# Assay type: functional
measurementType: Ataxia (mg/kg)
Field: numeric (mg/kg). Do not append units.

Before answering, review these 4 worked examples.
{"compound": "CNC12CCCCC1CCc1ccc(OC)cc12 (stereo not drawn)", "Ataxia [mg/kg]": 0.4}
{"compound": "CNC12CCCCC1CCc1ccccc12 (stereo not drawn)", "Ataxia [mg/kg]": 0.44}
{"compound": "NC12CCCCC1COc1ccccc12 (stereo not drawn)", "Ataxia [mg/kg]": 10}
{"compound": "CN[C@]12CCCCC1CCc1ccccc12 (stereo partly drawn)", "Ataxia [mg/kg]": 0.18}

Can you look up the measured Ataxia of NC12CCCCC1CCc1ccccc12 (stereo not drawn) for me?
0.55

Can you look up the measured Ataxia of CNC12CCCCC1CCc1sccc12 (stereo not drawn) for me?
1

Can you look up the measured Ataxia of NC12CCCCC1CSc1ccccc12 (stereo not drawn) for me?
4.7

----------
Entries and their measured log10 IC50 follow.
# subjectOfTest: Glutamate NMDA receptor
# runDescription: Binding affinity towards PCP site of the NMDA receptor was measured by displacement of […] in […]
# Format: tissue-based, Brain
Kindly note that the scale is log10 and the underlying IC50 is in µM.

{"compound": "CNC12CC=CCC1CC(C)c1ccccc12 (stereo not drawn)", "log10 IC50": -0.18}
{"compound": "CNC12CCCCC1CCc1ccc(O)cc12 (stereo not drawn)", "log10 IC50": -2.68}
{"compound": "CNC12CCCCC1CC(C)c1ccccc12 (stereo not drawn)", "log10 IC50": -0.50}
{"compound": "CNC12CCCCC1CC(O)c1ccccc12 (stereo not drawn)", "log10 IC50": 0.17}

Can you look up the measured log10 IC50 of NC12CCCCC1CCc1ccc(O)cc12 (stereo not drawn) for me?
-2.12

Can you look up the measured log10 IC50 of CC1(C)CC2CCCCC2(N)c2ccccc21 (stereo not drawn) for me?
1.57

Can you look up the measured log10 IC50 of CC1CC2CC=CCC2(N)c2ccccc21 (stereo not drawn) for me?
0.39

Can you look up the measured log10 IC50 of CN[C@]12CCCCC1Cc1ccccc12 (stereo partly drawn) for me?
-2.00

----------
# subjectOfTest: Glutamate NMDA receptor (Rattus norvegicus) (UniProt P35439+Q00959+Q00960+Q00961+Q62645+Q8VHN2+Q9R1M7)
# runDescription: Evaluated in vivo for its NMDA antagonist activity by the inhibition of NMDA-induced lethality in mice
# Format: functional, organism-based
# measurementConditions: Mus musculus; target entry is the homologue from another species
Response field class: enum, chosen by comparing ED50 against L (below 0.9 mg/kg), M (0.9 mg/kg to below 3 mg/kg), H (3 mg/kg or more)

For orientation, consider the following solved cases.
{"compound": "CNC12CC=CCC1CCc1ccc(OC)cc12 (centres undefined)", "classification": "H"}
{"compound": "NC12CCCCC1CCc1ccccc12 (single isomer, unassigned; form 2)", "classification": "H"}
{"compound": "NC12CCCCC1CCc1ccccc12 (centres undefined)", "classification": "L"}

Hi, small favor: classify CNC12CCCCC1COc1ccccc12 (centres undefined) by its ED50 when you get a moment.
H

Hi, small favor: classify NC12CCCCC1CSc1ccccc12 (centres undefined) by its ED50 when you get a moment.
M

Hi, small favor: classify CNC12CC=CCC1CSc1ccccc12 (centres undefined) by its ED50 when you get a moment.
M

Hi, small favor: classify C=CCNC12CCCCC1CCc1ccccc12 (centres undefined) by its ED50 when you get a moment.
H

Hi, small favor: classify CN[C@@]12CCCCC1CCc1ccccc12 (some centres undefined) by its ED50 when you get a moment.
M

Hi, small favor: classify CNC12CCCCC1Sc1ccccc12 (centres undefined) by its ED50 when you get a moment.
L

Hi, small favor: classify CNC12CCCCC1CCc1ccccc12 (centres undefined) by its ED50 when you get a moment.
L

Hi, small favor: classify CN[C@]12CCCCC1Cc1ccccc12 (some centres undefined) by its ED50 when you get a moment.
L

Hi, small favor: classify NC12CCCCC1CCc1sccc12 (centres undefined) by its ED50 when you get a moment.
M

----------
# Species: Mus musculus
# runDescription: Testing for ataxia was done by using an inverted screen technique
# Type: functional
measurementType: Ataxia

Before answering, review these 5 worked examples.
{"molecule": "NC12CCCCC1CCc1ccccc12 (single isomer, unassigned; form 2)", "result": "<3 mg/kg"}
{"molecule": "COc1ccc2c(c1)C1(N)CC=CCC1CC2 (stereo not drawn)", "result": "2.1 mg/kg"}
{"molecule": "C[C@]12N[C@H](Cc3ccccc31)c1ccccc12 [DIZOCILPINE]", "result": "0.3 mg/kg"}
{"molecule": "CNC12CC=CCC1CCc1ccc(OC)cc12 (stereo not drawn)", "result": "1 mg/kg"}
{"molecule": "COc1ccc2c(c1)C1(N)CCCCC1CC2 (stereo not drawn)", "result": "1.3 mg/kg"}

Can you look up the measured Ataxia of c1ccc(C2(N3CCCCC3)CCCCC2)cc1 [PHENCYCLIDINE] for me?
1 mg/kg

----------
# subjectOfTest: Glutamate NMDA receptor
# runDescription: Binding affinity towards PCP site of the NMDA receptor was measured by displacement of […] in […]
# Format: tissue-based, Brain
Quick rule for you: IC50 under 30 nM gets Criterion met, anything else gets Criterion not met.

For orientation, consider the following solved cases.
{"compound": "CNC12CCCCC1CSc1ccccc12 (configuration not stated)", "classification": "Criterion not met"}
{"compound": "CNC12CCCCC1CC(=O)c1ccccc12 (configuration not stated)", "classification": "Criterion not met"}

Switching to the query record.
Consider CNC12CCCCC1CCc1sccc12 (configuration not stated) . Does its IC50 lie strictly below 30 nM?
Criterion not met

----------
# runDescription: Partition coefficient was measured using a standard shake flask (SF) method at pH 7.4.
# Type: physicochemical
# measurementConditions: octanol/water
Entries and their measured logD follow.
# answer = number (no unit)

Before answering, review these 4 worked examples.
{"compound": "NC12CCCCC1CCc1sccc12 (centres undefined)", "logD": 0.66}
{"compound": "CNC12CCCCC1CC(=O)c1ccccc12 (centres undefined)", "logD": 0.78}
{"compound": "CNC12CCCCC1COc1ccccc12 (centres undefined)", "logD": 0.96}
{"compound": "CNC12CCCCC1CCc1ccc(OC)cc12 (centres undefined)", "logD": 1.51}

Can you look up the measured logD of CC1CC2CCCCC2(N)c2ccccc21 (centres undefined) for me?
1.61

Can you look up the measured logD of CNC12CCCCC1CCc1ccc(O)cc12 (centres undefined) for me?
0.31

Can you look up the measured logD of CNC1(c2ccccc2Cl)CCCCC1=O (centres undefined) [KETAMINE] for me?
2.18

Can you look up the measured logD of CNC12CCCCC1CC(O)c1ccccc12 (centres undefined) for me?
0.73

Can you look up the measured logD of CNC12CCCCC1CSc1ccccc12 (centres undefined) for me?
1.54

----------
# runDescription: Partition coefficient (logP) (HPLC)
# Type: physicochemical
# measurementConditions: octanol/water
measurementType: logP
# answer = number (no unit)

Before answering, review these 2 worked examples.
{"compound": "CNC12CC=CCC1CCc1ccccc12 (stereo not drawn)", "result": 3.07}
{"compound": "NC12CCCCC1CCc1ccccc12 (stereo not drawn)", "result": 2.92}

Can you look up the measured logP of NC12CCCCC1CCc1sccc12 (stereo not drawn) for me?
3.02

----------
# subjectOfTest: Glutamate NMDA receptor
# runDescription: Ability to inhibit glutamate induced accumulation of [45 [Ca2+]] in cultured rat cortical neurons
# Assay type: functional
Quick rule for you: IC50 under 700 nM gets Fulfilled, anything else gets Not fulfilled.

For orientation, consider the following solved cases.
{"compound": "CNC1(c2ccccc2Cl)CCCCC1=O (stereo unspecified) [KETAMINE]", "subjectOfTest": "Glutamate NMDA receptor", "classification": "Not fulfilled"}
{"compound": "CNC12CCCCC1COc1ccccc12 (stereo unspecified)", "subjectOfTest": "Glutamate NMDA receptor", "classification": "Not fulfilled"}
{"compound": "NC12CC=CCC1CCc1ccc(O)cc12 (stereo unspecified)", "subjectOfTest": "Glutamate NMDA receptor", "classification": "Not fulfilled"}
{"compound": "NC12CC=CCC1CCc1ccccc12 (stereo unspecified)", "subjectOfTest": "Glutamate NMDA receptor", "classification": "Not fulfilled"}
{"compound": "NC12CCCCC1CCc1sccc12 (stereo unspecified)", "subjectOfTest": "Glutamate NMDA receptor", "classification": "Not fulfilled"}

Consider CN(C)C12CCCCC1CCc1ccccc12 (stereo unspecified) . Does its IC50 lie strictly below 700 nM?
Not fulfilled

Consider CN[C@]12CCCCC1Cc1ccccc12 (stereo partly specified) . Does its IC50 lie strictly below 700 nM?
Fulfilled

Consider NC12CCCCC1CCc1ccc(O)cc12 (stereo unspecified) . Does its IC50 lie strictly below 700 nM?
Fulfilled

Consider CNC12CC=CCC1CCc1ccccc12 (stereo unspecified) . Does its IC50 lie strictly below 700 nM?
Fulfilled

Consider CNC12CC=CCC1CCc1ccc(OC)cc12 (stereo unspecified) . Does its IC50 lie strictly below 700 nM?
Fulfilled

Consider CNC12CCCCC1CCc1c(C)cc(OC)cc12 (stereo unspecified) . Does its IC50 lie strictly below 700 nM?
Not fulfilled
